system: Mycobacteroides abscessus; assay: Antibacterial activity against Mycobacterium abscessus CIP104536 after 3 to 5 days by two fold serial dilution method; type: functional
observable: MIC (µg/mL)

smiles_data=CCCCCCCCNC(=O)c1cc2c(Cl)cc(Cl)cc2[nH]1 bound_operator=> observed_value=32
smiles_data=O=C(NC1CCCCCC1)c1cc2c(Cl)cc(Cl)cc2[nH]1 bound_operator== observed_value=0.125
smiles_data=O=C(NC12CC3CC(CC(C3)C1)C2)c1cc2ccc(Br)cc2[nH]1 bound_operator== observed_value=16
smiles_data=Cc1cc(C)c2cc(C(=O)NC3CCCCCC3)[nH]c2c1 bound_operator== observed_value=0.125
smiles_data=Cc1cc(C)c2cc(CNC3CCCCCCC3)[nH]c2c1 bound_operator== observed_value=0.5
smiles_data=C[C@@H](NC(=O)c1cc2c(Cl)cc(Cl)cc2[nH]1)C1CCCCC1 bound_operator== observed_value=0.5
smiles_data=O=C(NC1CCCCCC1)c1cc2c(F)cc(F)cc2[nH]1 bound_operator== observed_value=0.125
smiles_data=Cc1cc(C)c2cc(C(=O)NC3CCCCCCC3)oc2c1 bound_operator== observed_value=0.5
smiles_data=C[C@@H]1[C@@H](NC(=O)c2cc3c(Cl)cc(Cl)cc3[nH]2)C[C@H]2C[C@@H]1C2(C)C bound_operator== observed_value=128
smiles_data=O=C(Nc1nc2ccc(OC(F)(F)F)cc2s1)C1CCCCCC1 bound_operator=> observed_value=32
smiles_data=O=C(NC1Cc2ccccc2C1)c1cc2c(Cl)cc(Cl)cc2[nH]1 bound_operator=> observed_value=32
smiles_data=O=C(NC1CCCCCCC1)c1cc2cc(Cl)ccc2o1 bound_operator== observed_value=0.5
